Just for reference, patent US20030194719A1 is where these values come from.

- System: Tyrosyl protein sulphotransferase (TPST)
- Protocol description: TPST activity assay in platelets from normal healthy blood donors (35S transfer from PAPS35 to EAY substrate)
- Format: biochemical, human
- Protocol conditions: Table 5; fatty acid 100 μM
Lab note: cut-off is 80. Strictly less in TPST activity (0 μM = 100.0) is true (1). Exactly 80 or more is false (0).

1) CCCCC/C=C\C/C=C\C/C=C\CCCCC(=O)O :: true (1)
2) CCCCCCCC/C=C\CCCCCCCC(=O)O :: true (1)
3) CC/C=C\C/C=C\C/C=C\C/C=C\C/C=C\C/C=C\CCC(=O)O :: false (0)
4) CCCC(=O)O :: true (1)

---

- Tested on: Tyrosyl protein sulphotransferase (TPST)
- Protocol description: TPST activity assay in platelets from normal healthy blood donors (35S transfer from PAPS35 to EAY substrate)
- Assay type: biochemical, human
- Protocol conditions: Table 7; flavonoid 2.5 μM
Class Condition met: TPST activity (0 μM = 100) at least 90. Class Condition not met: TPST activity (0 μM = 100) below 90.

1) O=c1c(O)c(-c2ccc(O)cc2)oc2cc(O)cc(O)c12 [Kaempferol] :: Condition not met
2) O=c1c(-c2ccc(O)cc2)coc2cc(O)ccc12 [Daidzein] :: Condition met
3) O=c1c(O)c(-c2ccc(O)c(O)c2)oc2cc(O)cc(O)c12 [Quercetin] :: Condition not met
4) O=c1c(-c2ccc(O)cc2)coc2cc(O)cc(O)c12 [Genistein] :: Condition not met
5) O=c1cc(-c2ccccc2)oc2ccccc12 [Flavone] :: Condition met

---

- Test system: Tyrosyl protein sulphotransferase (TPST)
- Protocol description: TPST activity assay in platelets from normal healthy blood donors (35S transfer from PAPS35 to EAY substrate)
- Assay type: biochemical, human
- Protocol conditions: Table 7; flavonoid 0.5 μM
Measured TPST activity (0 μM = 100) accompanies every entry in the list below.
Quantity kind: TPST activity (0 μM = 100)

1) O=c1c(O)c(-c2ccccc2)oc2ccccc12 :: 79
2) O=c1c(O)c(-c2ccc(O)c(O)c2)oc2cc(O)cc(O)c12 :: 45.8
3) O=c1cc(-c2ccccc2)oc2ccccc12 :: 80.3
4) O=c1c(O)c(-c2ccc(O)cc2)oc2cc(O)cc(O)c12 :: 45.2

---

- Test system: Tyrosyl protein sulphotransferase (TPST)
- Protocol description: TPST activity assay in platelets from normal healthy blood donors (35S transfer from PAPS35 to EAY substrate)
- Type: biochemical, human
- Protocol conditions: Table 7; flavonoid 10 μM
Class 1: TPST activity (0 μM = 100) at least 100. Class -1: TPST activity (0 μM = 100) below 100.

1. O=c1c(O)c(-c2ccc(O)c(O)c2)oc2cc(O)cc(O)c12 :: -1
2. O=c1c(-c2ccc(O)cc2)coc2cc(O)cc(O)c12 :: -1
3. O=c1cc(-c2ccccc2)oc2ccccc12 :: 1
4. O=c1c(-c2ccc(O)cc2)coc2cc(O)ccc12 :: 1
5. O=c1c(O)c(-c2ccc(O)cc2)oc2cc(O)cc(O)c12 :: -1
